# tested_on: Mouse ACVR2A (mouse, UniProt P27038 20-135, limits assumed)
# Sequence (P27038 20-135 limits assumed): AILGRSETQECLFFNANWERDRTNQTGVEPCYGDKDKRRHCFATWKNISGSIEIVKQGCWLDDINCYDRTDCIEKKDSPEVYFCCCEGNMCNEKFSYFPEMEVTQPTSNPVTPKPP
# protocol_summary: ELISA; also: test concentration or dose not given here
test_readout: optical density
Report the figure along with its unit, number first.

365_A09 (antibody, V domains shown, VH/VL only) VH: EVQLLESGGGLVQPGGSLRLSCAASGFTFSSYGMHWVRQAPGKGLEWVASINYNGGYTSYADSVKGRFTISRDNSKNTLYLQMNSLRAEDTAVYYCARGATWHDTHLDYWGQGTLVTVSS VL: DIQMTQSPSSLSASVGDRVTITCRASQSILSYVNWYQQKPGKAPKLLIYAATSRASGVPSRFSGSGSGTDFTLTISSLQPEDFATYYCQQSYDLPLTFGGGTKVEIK	2.48 OD

stdin: Return the recorded optical density value; entry: 375_A03 (antibody, V domains shown, VH/VL only) VH: EVQLLESGGGLVQPGGSLRLSCAASGFTFDSYSMNWVRQAPGKGLEWVAGINYNGGYTSYADSVKGRFTISRDNSKNTLYLQMNSLRAEDTAVYYCARGATWHDTHLDYWGQGTLVTVSS VL: DIQMTQSPSSLSASVGDRVTITCRASQSILTYLNWYQQKPGKAPKLLIYAATSRHSGVPSRFSGSGSGTDFTLTISSLQPEDFATYYCQQSYDNPLTFGGGTKVEIK
stdout: 3.62 OD
